This collection of values is drawn from patent US20230233569A1.

# assayed target: KRAS G13D (Homo sapiens, UniProt P01116+P62937, G13D)
# Sequence (P01116 1-169 isoform P01116-2 G13D limits assumed): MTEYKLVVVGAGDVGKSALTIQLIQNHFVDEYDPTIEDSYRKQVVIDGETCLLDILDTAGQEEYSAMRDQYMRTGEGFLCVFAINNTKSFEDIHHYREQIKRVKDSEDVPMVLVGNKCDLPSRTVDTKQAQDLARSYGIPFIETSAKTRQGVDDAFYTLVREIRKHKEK
# Sequence (P62937 whole entry): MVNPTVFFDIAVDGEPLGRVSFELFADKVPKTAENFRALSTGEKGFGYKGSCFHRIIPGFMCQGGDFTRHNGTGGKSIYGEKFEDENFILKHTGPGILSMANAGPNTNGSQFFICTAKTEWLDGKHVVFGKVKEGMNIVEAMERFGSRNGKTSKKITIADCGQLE
# assay name: Ras-Raf disruption / FRET / MOA assay (BRAF RBD)
# Assay type: biochemical
# condition set: Ras-Raf disruption, with Cyclophilin A; read-out: KRAS G13D FRET data IC50
pIC50: −log10 of the molar value.
measured parameter: pIC50

Prompt: // fetch pIC50 for CCn1c(-c2cccnc2[C@H](C)OC)c2c3cc(ccc31)-c1cc(O)cc(c1)C[C@H](NC(=O)[C@H](C(C)C)N(C)C(=O)[C@H]1CCN(C(=O)C3CO3)C1)C(=O)N1CCC[C@H](N1)C(=O)OCC(C)(C)C2 (stereo partly shown) [Example 330] ; system: KRAS G13D (Homo sapiens, UniProt P01116+P62937, G13D)
Response: 7.00 to 8.00

Prompt: // fetch pIC50 for CCn1c(-c2cccnc2[C@H](C)OC)c2c3cc(ccc31)-c1cc(O)cc(c1)C[C@H](NC(=O)[C@H](C(C)C)N(C)C(=O)[C@H]1CN1)C(=O)N1CCC[C@H](N1)C(=O)OCC(C)(C)C2 [Example 112] ; system: KRAS G13D (Homo sapiens, UniProt P01116+P62937, G13D)
Response: 6.00 to 7.00

Prompt: // fetch pIC50 for CCn1c(-c2cccnc2[C@H](C)OC)c2c3cc(ccc31)-c1cc(O)cc(c1)C[C@H](NC(=O)[C@@H](COC1CCN(C(=O)[C@H]3CN3)CC1)C(C)C)C(=O)N1CCC[C@H](N1)C(=O)OCC(C)(C)C2 (atropisomer, axis not shown) [Example 211] ; system: KRAS G13D (Homo sapiens, UniProt P01116+P62937, G13D)
Response: 5.00 to 6.00

Prompt: // fetch pIC50 for CCn1c(-c2cccnc2[C@H](C)OC)c2c3cc(ccc31)-c1cccc(c1)C[C@H](NC(=O)[C@H](C(C)C)N(C)C(=O)[C@H]1C[C@H](N=C=NCc3ccccc3OC)C1)C(=O)N1CCC[C@H](N1)C(=O)OCC(C)(C)C2 [Example 77] ; system: KRAS G13D (Homo sapiens, UniProt P01116+P62937, G13D)
Response: < 5.00

Prompt: // fetch pIC50 for CCn1c(-c2cnccc2COC)c2c3cc(ccc31)-c1cc(O)cc(c1)C[C@H](NC(=O)[C@H](C(C)C)N(C)C(=O)CN(C)C(=O)[C@H]1[C@@H](C(=O)OC)N1[S@+]([O-])C(C)(C)C)C(=O)N1CCC[C@H](N1)C(=O)OCC(C)(C)C2 (stereo partly shown) [Example 48] ; system: KRAS G13D (Homo sapiens, UniProt P01116+P62937, G13D)
Response: 6.00 to 7.00

Prompt: // fetch pIC50 for CCn1c(-c2cccnc2[C@H](C)OC)c2c3cc(ccc31)-c1cc(O)cc(c1)C[C@H](NC(=O)[C@H](C(C)C)N1CCC3(CN(C(=O)[C@H]4CN4)C3)C1=O)C(=O)N1CCC[C@H](N1)C(=O)OCC(C)(C)C2 [Example 115] ; system: KRAS G13D (Homo sapiens, UniProt P01116+P62937, G13D)
Response: 7.00 to 8.00

Prompt: // fetch pIC50 for CCn1c(-c2cccnc2[C@H](C)OC)c2c3cc(ccc31)-c1cc(O)cc(c1)C[C@H](NC(=O)[C@H](C1CCCC1)N1CC[C@@]3(CCN(C(=O)[C@H]4CN4)C3)C1=O)C(=O)N1CCC[C@H](N1)C(=O)OCC(C)(C)C2 [Example 174] ; system: KRAS G13D (Homo sapiens, UniProt P01116+P62937, G13D)
Response: 7.00 to 8.00

Prompt: // fetch pIC50 for CCn1c(-c2cccnc2[C@H](C)OC)c2c3cc(ccc31)-c1cc(O)cc(c1)C[C@H](NC(=O)[C@H](C(C)C)N(C)C(=O)c1ccc(NC(=O)[C@@H]3CN3)cn1)C(=O)N1CCC[C@H](N1)C(=O)OCC(C)(C)C2 (atropisomer, axis not shown) [Example 187] ; system: KRAS G13D (Homo sapiens, UniProt P01116+P62937, G13D)
Response: 6.00 to 7.00

Prompt: // fetch pIC50 for CCn1c(-c2cccnc2[C@H](C)OC)c2c3cc(ccc31)-c1cccc(c1)C[C@H](NC(=O)[C@H](C(C)C)N(C)C(=O)[C@H]1CC[C@H](N=C=NC34CC(C3)C4)C1)C(=O)N1CCC[C@H](N1)C(=O)OCC(C)(C)C2 [Example 123] ; system: KRAS G13D (Homo sapiens, UniProt P01116+P62937, G13D)
Response: < 5.00

Prompt: // fetch pIC50 for CCn1c(-c2cccnc2[C@H](C)OC)c2c3cc(ccc31)-c1csc(n1)C[C@H](NC(=O)[C@H](C(C)C)N(C)C(=O)N1CCN(C(=O)[C@H]3CN3)C[C@H]1C)C(=O)N1CCC[C@H](N1)C(=O)OCC(C)(C)C2 [Example 301] ; system: KRAS G13D (Homo sapiens, UniProt P01116+P62937, G13D)
Response: 6.00 to 7.00

Prompt: // fetch pIC50 for CCn1c(-c2cccnc2[C@H](C)OC)c2c3cc(ccc31)-c1cc(O)cc(c1)C[C@H](NC(=O)[C@H](C(C)C)N(C)C(=O)c1ccc([C@@H]3CN3)nc1)C(=O)N1CCC[C@H](N1)C(=O)OCC(C)(C)C2 [Example 87] ; system: KRAS G13D (Homo sapiens, UniProt P01116+P62937, G13D)
Response: 6.00 to 7.00

Prompt: // fetch pIC50 for CCn1c(-c2cnccc2COC)c2c3cc(ccc31)-c1cccc(c1)C[C@H](NC(=O)[C@H](C(C)C)N(C)C(=O)CCN=C=NCc1ccccc1C)C(=O)N1CCC[C@H](N1)C(=O)OCC(C)(C)C2 [82 A and B] ; system: KRAS G13D (Homo sapiens, UniProt P01116+P62937, G13D)
Response: < 5.00

Prompt: // fetch pIC50 for CCn1c(-c2cccnc2[C@H](C)OC)c2c3cc(ccc31)-c1cc(O)cc(c1)C[C@H](NC(=O)[C@H](C(C)C)N(C)C(=O)N1CCCN(C(=O)[C@@H]3CN3)CC1)C(=O)N1CCC[C@H](N1)C(=O)OCC(C)(C)C2 [Example 173] ; system: KRAS G13D (Homo sapiens, UniProt P01116+P62937, G13D)
Response: 7.00 to 8.00

Prompt: // fetch pIC50 for CCn1c(-c2cccnc2[C@H](C)OC)c2c3cc(ccc31)-c1cc(O)cc(c1)C[C@H](NC(=O)[C@H](C(C)C)N(C)C(=O)[C@H]1CCCN(C(=O)[C@H]3CN3)C1)C(=O)N1CCC[C@H](N1)C(=O)OCC(C)(C)C2 [Example 165] ; system: KRAS G13D (Homo sapiens, UniProt P01116+P62937, G13D)
Response: 6.00 to 7.00

Prompt: // fetch pIC50 for CCn1c(-c2cccnc2[C@H](C)OC)c2c3cc(ccc31)-c1csc(n1)C[C@H](NC(=O)[C@H](C(C)C)N(C)C(=O)N1CCC(CN(C)C(=O)[C@H]3CN3)CC1)C(=O)N1CCC[C@H](N1)C(=O)OCC(C)(C)C2 (atropisomer, axis not shown) [Example 326] ; system: KRAS G13D (Homo sapiens, UniProt P01116+P62937, G13D)
Response: 6.00 to 7.00

Prompt: // fetch pIC50 for CCn1c(-c2cccnc2[C@H](C)OC)c2c3cc(ccc31)-c1cc(O)cc(c1)C[C@H](NC(=O)[C@H](C(C)C)N(C)C(=O)c1nc(NC(=O)[C@H]3CN3)cs1)C(=O)N1CCC[C@H](N1)C(=O)OCC(C)(C)C2 (atropisomer, axis not shown) [Example 212] ; system: KRAS G13D (Homo sapiens, UniProt P01116+P62937, G13D)
Response: 6.00 to 7.00
